Data provenance: the supplement of paper PMC10126150

system: ATP; assay: switch fluorescence ratio, 500 uM ATP over buffer (Cy3 cluster intensity, sum of 5 cycles each) (fold (ratio)); higher = stronger signal-on switching upon ATP binding; sequences stand for … in TCGTCGGCAGCGTCAGATGTGTATAAGAGACAGTTTTTTTTTTTTTTTTTTTTTTTTT…TC; conditions: aptamer strand: ATP DNA aptamer (quencher-CACCTGGGGGAGTATTGCGGAGGAAGG + anchor), 100 nM annealed; ATP concentration: 500 uM;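 further: ATP exposure 15 min at 22 °C before imaging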
sequences and their reported switch fluorescence ratio

# residueCodes, switch fluorescence ratio
data = [
    ("CAATTGCAGG", 1.01),
    ("TTGGAATAAA", 1.02),
    ("GGTTACCGTG", 0.997),
    ("TTAGTTGGGT", 1),
    ("CTTTGGGCCC", 0.983),
    ("GAGGATTAGA", 0.988),
    ("GGTGCGGGCG", 1.02),
    ("AGGCTATCCC", 0.992),
    ("TCGTACTGTG", 1.02),
    ("TCATGTGTTG", 0.992),
    ("TTTTTTGGTA", 1.01),
    ("TTTTATTTCA", 0.991),
    ("TCAGGGTGCC", 1.02),
    ("CCATTAGGAG", 0.988),
    ("GGTTGCACGC", 1.01),
    ("GGGGGGAAAG", 0.98),
]
